Assign GI50 to each entry below.
Tested on: SK-MEL-5
Assay: NCI tumour cell line growth inhibition, 48 h
Activity calls are given as the source filed them. No stated cut-off is given here; in the data, active = GI50 up to about 1.1 µM and inactive = higher.

Param item = CC(C)CC(Nc1c(O)ccc2ccccc12)C(=O)O (stereo unspecified) ; retrieve measured GI50.
18.3 µM (inactive)

Could you tell me which GI50 is on file for O=C1CC(C(OCc2ccccc2)C(OCc2ccccc2)C(OCc2ccccc2)C(COCc2ccccc2)OCc2ccccc2)CC(=O)N1 (stereo unspecified) ?
> 100 µM (inactive)

Please report the recorded GI50 for CC(=O)O[C@H]1CC[C@@]2(C)C(=CC[C@@H]3[C@@H]2CC[C@](C)(c2nnc(C)o2)[C@H]3CC#N)C1 .
> 100 µM (inactive)

For the compound O=C1/C(=N\NC(=S)Nc2ccc(Cl)cc2)c2cc([N+](=O)[O-])ccc2N1CN1CCOCC1 , what GI50 is on record?
4 µM (inactive)

# GI50 lookup, item COc1cc2c(c(OC)c1)C(C)=NC(C)C2 (stereo unspecified)
> 100 µM (inactive)

Please report the recorded GI50 for Cc1ccc2nc(N/N=C/c3cccc(C)n3)cc(C)c2c1 .
17.2 µM (inactive)

Tell me the measured GI50 of c1ccc(CCCC2Sc3cccc4cccc(c34)S2)cc1 , please.
78.3 µM (inactive)

Can you look up the measured GI50 of O=C(/C=C1\Nc2ccccc2N=C1NC12CC3CC(CC(C3)C1)C2)c1ccc(Br)cc1 for me?
> 10 µM (inactive)

Name the reported GI50 value associated with the compound O=C(O)CCC(C(=O)O)N1C(=O)C2C3CCC(C3)C2C1=O (stereo unspecified)
> 100 µM (inactive)

Would you mind telling me what GI50 value was observed for O=NN1CCN=C1c1ccc([N+](=O)[O-])cc1 ?
> 100 µM (inactive)

Requested read-out: GI50. Entry: c1ccc(-c2nnn(CCN3CCCCC3)n2)cc1
> 100 µM (inactive)
